Please respond with reported growth for every item in the list.
- System: SNB-75 CNS
- Method Notes: NCI-60 one-dose screen, 48 h (100 = growth as untreated, 0 = no growth, -100 = all killed)
- Condition Description: 10 µM unless noted
- Method: Growth inhibition of the SNB-75 human tumor cell line is measured as a screen for anti-cancer activity. Cells are grown in 96 well plates and exposed to the test compound for 48 hours. Compounds are tested at a single concentration, which is 10^-5 M for most compounds. The reported endpoint is percent growth (GI% or GIPRCNT), where numbers from 0 - 100% represent growth inhibition, and numbers from -100% - 0 represent cell death. For example, a value of 40 represents 60% growth inhibition. […]
Compounds without any hit were thinned out: in the full panel of roughly 83,000, 20% have a hit.
Kindly answer with a numeric value in %, unit omitted.

query: What growth value was documented for this compound, Cn1cc(-c2cc3ncnc(Nc4ccc(NC(=O)Nc5cc(C(C)(C)C)on5)cc4)c3s2)cn1 ?
result: 6.15

query: What growth value was documented for this compound, O=S(=O)(NCCCNc1nccc(-c2[nH]c(-c3ccccc3)nc2-c2ccc(F)c(O)c2)n1)c1ccc(C(F)(F)F)cc1 ?
result: -0.845

query: What growth value was documented for this compound, CCn1c2ccc(/C=N/N(C)S(=O)(=O)CCN(C)C)cc2c2cc(/C=N/N(C)S(=O)(=O)CCN(C)C)ccc21 ?
result: 87.1

query: What growth value was documented for this compound, COc1ccc(N2CCN(C3=C(Cl)C(=O)c4ncccc4C3=O)CC2)cc1 ?
result: 85.2

query: What growth value was documented for this compound, O=C(CN1CCN(c2cc(=O)[nH]c3ccc(F)cc23)CC1)N(c1ccccc1)c1ccccc1 ?
result: 71.3

query: What growth value was documented for this compound, COc1cc(C(=O)c2cc(C(C)=O)c3c(C)cccn23)cc(OC)c1OC ?
result: 64.6

query: What growth value was documented for this compound, CC(Nc1ncnc2ccc(-c3cnc(N)nc3)cc12)c1ccccc1 (centres undefined) ?
result: 31.1

query: What growth value was documented for this compound, Cc1ccc2c(n1)C(=O)C(Cl)=C(Nc1cccc(C(F)(F)F)c1)C2=O ?
result: 109

query: What growth value was documented for this compound, COc1ccc(/C=N/NC(=O)CSc2nc(-c3cnccn3)cc(-c3cccs3)c2C#N)cc1OC ?
result: 81.9

query: What growth value was documented for this compound, Cc1ccc(S(=O)(=O)c2nc(-c3ccc(F)cc3)oc2S(C)(=O)=O)cc1 ?
result: 87.2

query: What growth value was documented for this compound, CC(C)(C)Nc1nc2c(OCCc3ccccc3)cccn2c1-c1ccc([N+](=O)[O-])cc1 ?
result: 88.1

query: What growth value was documented for this compound, CCCCCc1ccc(S(=O)(=O)Nc2cc(-c3csc(N)n3)ccc2OC)cc1 ?
result: 103

query: What growth value was documented for this compound, Cc1ccccc1NC(=O)Nc1nc2ccc([N+](=O)[O-])cc2s1 ?
result: 6.72

query: What growth value was documented for this compound, O=C(CSc1nc2ccccc2c(=O)n1-c1ccccc1)Nc1ccc(S(=O)(=O)Nc2nccs2)cc1 ?
result: 57.4

query: What growth value was documented for this compound, Cc1cc2nc(C(Cl)Cl)nc(-c3ccc(S(=O)(=O)N(C)C)cc3)n2n1 ?
result: 55.5

query: What growth value was documented for this compound, CCCCCCOC(=O)c1cc(-c2ccc(F)cc2)nc2ccccc12 ?
result: 69.9

query: What growth value was documented for this compound, C#C[C@]1(O)CC[C@H]2[C@@H]3CC=C4c5sc(Nc6cccc(F)c6)nc5CC[C@]4(C)[C@H]3CC[C@@]21C ?
result: 24.1

query: What growth value was documented for this compound, COc1ccc(C2C(C#N)=C(/N=C/c3ccc(Cl)cc3)Oc3c2sc2c(C)cccc32)cc1 (centres undefined) ?
result: 29.2

query: What growth value was documented for this compound, CN1CCN(Cc2ccc(NC(=O)c3cncc(C#Cc4cnc5ccc(O[C@@H]6CCOC6)nn45)c3)cc2C(F)(F)F)CC1 ?
result: -98.4

The measurements presented in this section are drawn from PubChem BioAssay (NCI).
